Where do these numbers come from? They come from the METLIN SMRT retention time set (Domingo-Almenara et al. 2019).

Reported RP-LC retention time is given for each of the following compounds.
assay: gradient 5% acetonitrile 3 min, to 50% in 2 min, to 85% in 15 min, held 3 min, 100 µL/min; conditions: column: Zorbax Extend-C18 2.1 x 50 mm; eluents: water / acetonitrile, 0.1% formic acid
Write the number in s without appending the unit.

Reference set, count: 5
>>> print(df.to_string())
                                   compound       measured_metric  u  quantitative_readout
0           COCCN1C(=O)CCc2cc(NC(C)=O)ccc21  RP-LC retention time  s                   604
1         COc1ccc2c(CCNC(=O)C(C)C)c[nH]c2c1  RP-LC retention time  s                   706
2              O=C(Nc1cc(-c2cccs2)no1)C1CC1  RP-LC retention time  s                   803
3   O=C(CSCc1ccccc1)Nc1cc(=O)[nH]c(=O)[nH]1  RP-LC retention time  s                   629
4  COC(=O)c1ccccc1NC(=O)N(Cc1cc(=O)[nH]c2ccccc12)C(C)C  RP-LC retention time  s                   831

query: Quick one: RP-LC retention time of Cc1noc(-c2ccc(OC3CN(S(=O)(=O)c4cn(C)cn4)C3)cc2)n1 ?
result: 796

query: Quick one: RP-LC retention time of CCCNC(=O)C1CCN(c2cnc(N3CCCCCC3)nc2)CC1 ?
result: 666

query: Quick one: RP-LC retention time of CCc1ccc(NC(=O)N2CCCC(C)(C(=O)NCc3ccccc3C)C2)cc1 (stereo not drawn) ?
result: 1040

query: Quick one: RP-LC retention time of O=C(CCC1CCCN(S(=O)(=O)c2ccccc2)C1)NCC1CCCCC1 (stereo not drawn) ?
result: 956
